These entries and their values trace back to paper PMC10713829.

Biological target: HLA-A*01:01/hβ2m complex (empty, peptide-free or peptide-receptive) (human)
Test: FP
Property: IC50
# output: number + unit

GET /value?item= ILDTAGQEEY [NRAS_(55-64) wild-type (Q61) peptide] &field=IC50 returns 278 nM
